Reference for the values: patent US9890146B2

Tested on: male monkey (a cynomolgus monkey)
Test: Intraocular pressure lowering activity after ocular instillation
Type: in vivo
Conditions: Primates, in Macaca fascicularis, topical; maximum rate during 24 hours after ocular instillation of 30 μL, conscious monkey; administration concentration 10 μg/mL
A collection of compounds and their measured inhibition in vivo at 10 µg/mL
Quantity: inhibition in vivo at 10 µg/mL (%)

                                   compound  val
0  OCc1csc([C@H]2CC[C@@H]3[C@@H](COc4ccc5c(c4)CCCC5)[C@@H](O)C[C@@H]3O2)n1 [10(7)]   41
1  Cc1ccc(OC[C@@H]2[C@H]3CC[C@H](c4nc(CO)cs4)O[C@H]3C[C@H]2O)cc1C [2(12)]   43
2  OCc1csc([C@H]2CC[C@@H]3[C@@H](COc4ccc(Cl)c(C5CC5)c4)[C@H](O)C[C@@H]3O2)n1 [2(10)]   31
3  CCc1cc(OC[C@@H]2[C@H]3CC[C@H](c4nc(CO)cs4)O[C@H]3C[C@H]2O)ccc1C [2(9)]   52
4  OCc1csc([C@H]2CC[C@@H]3[C@@H](COc4ccc5c(c4)CCCCC5)[C@@H](O)C[C@@H]3O2)n1 [10(16)]   45
5  OCc1csc([C@H]2CC[C@@H]3[C@@H](COc4ccc(C5CC5)c(C5CC5)c4)[C@@H](O)C[C@@H]3O2)n1 [Example 10]   40

* * *

Target: human EP2 (Homo sapiens)
Construct: expressed in transfected cells; host or cells: CHO cells (EP2-CHO)
Sequence (P43116 whole entry): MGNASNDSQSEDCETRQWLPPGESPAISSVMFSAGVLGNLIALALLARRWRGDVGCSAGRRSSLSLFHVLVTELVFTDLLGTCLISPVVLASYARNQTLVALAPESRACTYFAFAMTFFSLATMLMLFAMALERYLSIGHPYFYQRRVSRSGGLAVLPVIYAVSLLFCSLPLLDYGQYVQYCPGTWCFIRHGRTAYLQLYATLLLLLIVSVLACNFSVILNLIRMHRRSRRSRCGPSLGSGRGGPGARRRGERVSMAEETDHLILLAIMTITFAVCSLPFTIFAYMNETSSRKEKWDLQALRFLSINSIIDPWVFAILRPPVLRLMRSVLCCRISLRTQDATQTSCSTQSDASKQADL
Test: Measurement of EP2 agonist activity (measurement of cAMP concentration)
Type: cell-based
Settings: EP2-CHO cells, cAMP production (HTRF), reaction 30 minutes at room temperature; read-out: EP2 agonist activity EC50
Attribute: log10(EC50)
Quantity: log10(EC50) (log10 of the value in nM)

                                   compound     quantity    val
0  O=C(O)c1csc([C@H]2CC[C@@H]3[C@@H](COc4ccc5c(c4)CCCC5)[C@@H](O)C[C@@H]3O2)n1 [9(12)]  log10(EC50)   0.81
1  O=C(O)c1csc([C@H]2CC[C@@H]3[C@@H](COc4cccc5c4CCC5)[C@H](O)C[C@@H]3O2)n1 [1(13)]  log10(EC50)   0.04
2  CCc1ccc(OC[C@@H]2[C@H]3CC[C@H](c4nc(C(=O)O)cs4)O[C@H]3C[C@@H]2O)cc1C1CC1 [9(35)]  log10(EC50)   0.38
3  O=C(O)c1csc([C@H]2CC[C@@H]3[C@@H](COc4ccccc4)[C@H](O)C[C@@H]3O2)n1 [1(27)]  log10(EC50)   1.08
4  CCc1cc(OC[C@@H]2[C@H]3CC[C@H](c4nc(C(=O)O)cs4)O[C@H]3C[C@H]2O)ccc1C [1(17)]  log10(EC50)  -0.09
5  Cc1ccc(OC[C@@H]2[C@H]3CC[C@H](c4nc(C(=O)O)cs4)O[C@H]3C[C@H]2O)cc1C [1(7)]  log10(EC50)   0.52
6  CCc1cc(OC[C@@H]2[C@H]3CC[C@H](c4nc(C(=O)O)cs4)O[C@H]3C[C@@H]2O)ccc1C [9(4)]  log10(EC50)  -0.48
